So I've got a bunch of molecules here, and I need their nuclei count values.
- METHOD_SUMMARY: reduction of polyQ htt aggregates in cells – imaging, exon1htt(103Q)mCFP cells, high-content imaging, primary screen (AID 483);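 further: compound exposure lasted 3 days before fixation; percent of the per-plate median nuclei count of sample wells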
- TEST_CONDITIONS: exon1htt(103Q)mCFP cell line, aggregate imaging, at 2 µM; measured here: cell count, toxicity
Enter your answer as a number in %; do not include the unit.

Lookup result for Cc1ccccc1NC(=O)C1CC(=O)N(c2ccccc2F)C1 (centres undefined) ; measured nuclei count: 77

Lookup result for O=C1NC(Cc2c[nH]c3ccccc23)C(=O)N1CCOc1ccccc1 (centres undefined) ; measured nuclei count: 120

Lookup result for "CN(CCc1ccccn1)c1ncnc2[nH]ncc12" ; measured nuclei count: 71.8

Lookup result for Cc1ccc(NC(=O)C2CC=CCC2C(=O)N2CCCCC2)cc1 (centres undefined) ; measured nuclei count: 66.9

Lookup result for "CCN(CC)S(=O)(=O)c1ccc2oc(C(=O)N3CCOCC3)c(C)c2c1" ; measured nuclei count: 107

Lookup result for S=c1[nH]nc(-c2ccccc2)n1C1C=CCCC1 (centres undefined) ; measured nuclei count: 94

Lookup result for "O=C(COC(=O)CCC(=O)c1cccs1)NCc1ccco1" ; measured nuclei count: 101

Lookup result for O=C(NCC1CCCO1)C1CCC(CNS(=O)(=O)c2ccccc2)CC1 (centres undefined) ; measured nuclei count: 110

Lookup result for "O=C(CSc1nnc2ncccn12)N1CCCCCC1" ; measured nuclei count: 106

Lookup result for O=C1NC(=O)C(CC(=O)N(Cc2ccco2)C2(C(=O)NC3CCCC3)CCCCC2)N1 (centres undefined) ; measured nuclei count: 106

Lookup result for "Cn1c(=O)cc(NCCc2ccccc2)[nH]c1=O" ; measured nuclei count: 116

Lookup result for "Fc1cccc(Cl)c1Cn1nnc2c(NCc3ccccn3)ncnc21" ; measured nuclei count: 120

Lookup result for COc1ccc(Br)cc1CNC(=O)C1CCCN(S(C)(=O)=O)C1 (centres undefined) ; measured nuclei count: 114

Lookup result for "C/C=C/CSc1nc2c(c(=O)[nH]c(=O)n2C)n1Cc1ccc(C)cc1" ; measured nuclei count: 116

Lookup result for "COc1ccc(-n2ncc3c(=O)n(CC(=O)OCc4ccccc4)cnc32)cc1" ; measured nuclei count: 94.6

Lookup result for "CCc1cc(=O)n2[nH]c(C)c(-c3ccccc3OC)c2n1" ; measured nuclei count: 64.6

Lookup result for CCC(C)(C)NC(=O)C(c1ccco1)N(C(=O)Cn1nnc2ccccc21)c1ccc2c(c1)OCO2 (centres undefined) ; measured nuclei count: 86

Lookup result for "COCCNC(=O)CCc1nc(-c2ccccc2)no1" ; measured nuclei count: 103

Lookup result for "COc1ccc2[nH]c(=O)c(CNC3CCCCC3)cc2c1" ; measured nuclei count: 112

Lookup result for "CCOC(=O)c1oc2ccccc2c1NC(=O)c1cccc(OC)c1OC" ; measured nuclei count: 104

Lookup result for "CCOC(=O)c1cnc(-n2cc(C)cn2)nc1Nc1ccccc1OC" ; measured nuclei count: 105

Lookup result for CC(=O)OC1c2ccccc2C(=O)N1c1ccccc1C (centres undefined) ; measured nuclei count: 85.9

Lookup result for "Cc1ccccc1-c1nc(CS(=O)(=O)CC(=O)NCc2ccc3c(c2)OCO3)c(C)o1" ; measured nuclei count: 115

Lookup result for "Nc1nc(N2CCCCC2)nc(N(c2ccccc2)c2ccccc2)n1" ; measured nuclei count: 88
